- test-system: T1, G9a and GLP (Homo sapiens, UniProt Q96KQ7+Q9H9B1)
- T1 sequence (Q96KQ7 2-1210 limits assumed): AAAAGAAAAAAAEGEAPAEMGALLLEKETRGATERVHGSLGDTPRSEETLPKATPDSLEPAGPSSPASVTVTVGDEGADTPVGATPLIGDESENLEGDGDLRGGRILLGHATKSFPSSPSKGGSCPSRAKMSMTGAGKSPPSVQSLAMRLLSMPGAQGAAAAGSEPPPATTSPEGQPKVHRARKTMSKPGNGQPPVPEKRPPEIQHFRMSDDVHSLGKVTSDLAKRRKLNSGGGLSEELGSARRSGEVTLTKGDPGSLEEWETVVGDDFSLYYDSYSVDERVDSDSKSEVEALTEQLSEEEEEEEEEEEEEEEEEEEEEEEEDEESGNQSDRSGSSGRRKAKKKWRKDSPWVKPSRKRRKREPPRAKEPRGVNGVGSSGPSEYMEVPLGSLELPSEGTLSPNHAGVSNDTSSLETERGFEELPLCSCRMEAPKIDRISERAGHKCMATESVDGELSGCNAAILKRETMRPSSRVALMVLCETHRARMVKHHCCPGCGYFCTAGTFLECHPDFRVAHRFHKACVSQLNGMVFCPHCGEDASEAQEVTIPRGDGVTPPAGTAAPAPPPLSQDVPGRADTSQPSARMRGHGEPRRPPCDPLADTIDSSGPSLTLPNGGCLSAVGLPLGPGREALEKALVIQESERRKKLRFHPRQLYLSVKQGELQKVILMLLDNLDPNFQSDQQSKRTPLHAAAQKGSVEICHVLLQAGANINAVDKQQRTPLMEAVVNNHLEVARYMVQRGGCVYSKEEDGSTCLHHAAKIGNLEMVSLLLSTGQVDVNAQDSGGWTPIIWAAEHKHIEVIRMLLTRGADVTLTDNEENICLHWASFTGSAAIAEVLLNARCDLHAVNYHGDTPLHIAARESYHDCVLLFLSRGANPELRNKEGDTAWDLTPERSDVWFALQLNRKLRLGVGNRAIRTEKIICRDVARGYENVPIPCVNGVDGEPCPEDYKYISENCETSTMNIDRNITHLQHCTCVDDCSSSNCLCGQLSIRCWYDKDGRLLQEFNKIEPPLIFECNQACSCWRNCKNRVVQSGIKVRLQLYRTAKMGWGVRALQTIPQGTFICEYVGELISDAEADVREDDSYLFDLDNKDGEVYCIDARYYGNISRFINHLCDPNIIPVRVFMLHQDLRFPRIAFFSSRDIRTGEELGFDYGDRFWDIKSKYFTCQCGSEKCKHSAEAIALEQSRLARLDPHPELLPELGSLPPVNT
- T1 sequence (Q9H9B1 2-1298 limits assumed): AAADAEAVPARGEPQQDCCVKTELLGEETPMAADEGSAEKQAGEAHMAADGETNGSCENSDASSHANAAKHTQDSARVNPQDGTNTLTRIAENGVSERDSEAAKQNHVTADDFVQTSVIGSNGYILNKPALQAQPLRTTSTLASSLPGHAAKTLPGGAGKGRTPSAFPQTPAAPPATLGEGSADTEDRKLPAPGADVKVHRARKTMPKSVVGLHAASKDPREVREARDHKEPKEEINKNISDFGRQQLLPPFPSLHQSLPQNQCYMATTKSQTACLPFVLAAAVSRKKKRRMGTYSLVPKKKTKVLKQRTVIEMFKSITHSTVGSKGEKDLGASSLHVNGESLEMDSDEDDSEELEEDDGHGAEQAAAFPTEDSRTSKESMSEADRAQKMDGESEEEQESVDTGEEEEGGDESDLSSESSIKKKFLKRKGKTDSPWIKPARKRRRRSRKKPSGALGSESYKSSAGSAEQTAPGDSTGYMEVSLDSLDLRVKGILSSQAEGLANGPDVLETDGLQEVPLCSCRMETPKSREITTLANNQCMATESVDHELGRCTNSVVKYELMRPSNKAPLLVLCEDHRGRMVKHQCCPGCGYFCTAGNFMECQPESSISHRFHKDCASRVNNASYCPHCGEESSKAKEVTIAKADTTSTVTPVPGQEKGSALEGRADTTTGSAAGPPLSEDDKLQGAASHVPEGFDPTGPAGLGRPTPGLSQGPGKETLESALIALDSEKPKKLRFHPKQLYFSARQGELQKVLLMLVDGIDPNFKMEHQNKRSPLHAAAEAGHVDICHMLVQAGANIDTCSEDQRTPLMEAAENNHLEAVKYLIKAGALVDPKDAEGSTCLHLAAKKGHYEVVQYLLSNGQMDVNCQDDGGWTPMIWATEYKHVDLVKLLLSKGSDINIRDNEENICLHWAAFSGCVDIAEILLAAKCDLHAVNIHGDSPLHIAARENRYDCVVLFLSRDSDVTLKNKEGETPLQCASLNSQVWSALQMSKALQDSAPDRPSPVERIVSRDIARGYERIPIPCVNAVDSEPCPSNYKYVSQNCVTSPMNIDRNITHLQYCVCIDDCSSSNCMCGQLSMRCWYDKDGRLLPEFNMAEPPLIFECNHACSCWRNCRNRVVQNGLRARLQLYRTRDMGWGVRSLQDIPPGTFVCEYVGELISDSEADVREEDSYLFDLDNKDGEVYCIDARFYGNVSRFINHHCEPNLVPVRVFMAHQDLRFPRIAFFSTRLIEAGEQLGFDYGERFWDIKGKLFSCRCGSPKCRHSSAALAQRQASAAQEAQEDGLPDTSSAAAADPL
- procedure-details: Triple SILAC pull-down after UNC0638 treatment of 293T cells, DMSO/UNC0638 ratio of protein captured by 3×MBT;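 also: mass spectrometry (Q-Exactive) SILAC quantitation, DMSO/UNC0638 ratio computed after subtracting 3×MBTD355N mutant pull-down background, only proteins with at least twofold 3×MBT over mutant signal considered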
- Format: cell-based
- Set-up: endogenous in cells; host or cells: HEK 293T
- measurement-conditions: average of UNC Light and UNC Heavy experiments
Entries and their measured Relative to UNC0638 Average follow.
Respond numerically; units are log base 2 and should not be typed.

Below: 3 molecules and their reported Relative to UNC0638 Average.
CBR1 (protein, UniProt P16152 2-277, looked up) Carbonyl reductase [NADPH] 1: SSGIHVALVTGGNKGIGLAIVRDLCRLFSGDVVLTARDVTRGQAAVQQLQAEGLSPRFHQLDIDDLQSIRALRDFLRKEYGGLDVLVNNAGIAFKVADPTPFHIQAEVTMKTNFFGTRDVCTELLPLIKPQGRVVNVSSIMSVRALKSCSPELQQKFRSETITEEELVGLMNKFVEDTKKGVHQKEGWPSSAYGVTKIGVTVLSRIHARKLSEQRKGDKILLNACCPGWVRTDMAGPKATKSPEEGAETPVYLALLPPDAEGPHGQFVSEKRVEQW    0.53
DCAF7 (protein, UniProt P61962 1-342, looked up) DDB1- and CUL4-associated …: MSLHGKRKEIYKYEAPWTVYAMNWSVRPDKRFRLALGSFVEEYNNKVQLVGLDEESSEFICRNTFDHPYPTTKLMWIPDTKGVYPDLLATSGDYLRVWRVGETETRLECLLNNNKNSDFCAPLTSFDWNEVDPYLLGTSSIDTTCTIWGLETGQVLGRVNLVSGHVKTQLIAHDKEVYDIAFSRAGGGRDMFASVGADGSVRMFDLRHLEHSTIIYEDPQHHPLLRLCWNKQDPNYLATMAMDGMEVVILDVRVPCTPVARLNNHRACVNGIAWAPHSSCHICTAADDHQALIWDIQQMPRAIEDPILAYTAEGEINNVQWASTQPDWIAICYNNCLEILRV    0.59
DUT (protein, UniProt P33316 70-252, looked up) Deoxyuridine 5'-triphosphate …: ASTVGAAGWKGELPKAGGSPAPGPETPAISPSKRARPAEVGGMQLRFARLSEHATAPTRGSARAAGYDLYSAYDYTIPPMEKAVVKTDIQIALPSGCYGRVAPRSGLAAKHFIDVGAGVIDEDYRGNVGVVLFNFGKEKFEVKKGDRIAQLICERIFYPEIEEVQALDDTERGSGGFGSTGKN    0.33

Record KIN (protein, UniProt O60870 1-393, looked up) DNA/RNA-binding protein KIN17: MGKSDFLTPKAIANRIKSKGLQKLRWYCQMCQKQCRDENGFKCHCMSESHQRQLLLASENPQQFMDYFSEEFRNDFLELLRRRFGTKRVHNNIVYNEYISHREHIHMNATQWETLTDFTKWLGREGLCKVDETPKGWYIQYIDRDPETIRRQLELEKKKKQDLDDEEKTAKFIEEQVRRGLEGKEQEVPTFTELSRENDEEKVTFNLSKGACSSSGATSSKSSTLGPSALKTIGSSASVKRKESSQSSTQSKEKKKKKSALDEIMEIEEEKKRTARTDYWLQPEIIVKIITKKLGEKYHKKKAIVKEVIDKYTAVVKMIDSGDKLKLDQTHLETVIPAPGKRILVLNGGYRGNEGTLESINEKTFSATIVIETGPLKGRRVEGIQYEDISKLA , field Relative to UNC0638 Average: 0.15

Record SRP19 (protein, UniProt P09132 1-144, looked up) Signal recognition particle …: MACAAARSPADQDRFICIYPAYLNNKKTIAEGRRIPISKAVENPTATEIQDVCSAVGLNVFLEKNKMYSREWNRDVQYRGRVRVQLKQEDGSLCLVQFPSRKSVMLYAAEMIPKLKTRTQKTGGADQSLQQGEGSKKGKGKKKK , field Relative to UNC0638 Average: 0.15
